System: EW-24 (Ewing's Sarcoma);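 note: after 72 h of two-drug dosing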
Assay Protocol: Bliss excess, mean over the matrix (fraction); higher = more synergy
# label = 1 (yes) if Bliss excess >= -0.02 else 0 (no)

[[record]]
molecule = "Cc1cc2ncnn2cc1Nc1ncc2c(n1)n(C1CCOCC1)c(=O)n2C [AZD7648] + CN(C)CCCOc1ccc(-c2ccc3ncc4c(c3c2)n(C2CCOCC2)c(=O)n4C)cn1 [AZD0156] (first compound max 10 µM, 7x7, partner max 1 µM)"
label_class = "0 (no)"

[[record]]
molecule = "CC1(C)CCC(CN2CCN(c3ccc(C(=O)NS(=O)(=O)c4ccc(NCC5CCOCC5)c([N+](=O)[O-])c4)c(Oc4cnc5[nH]ccc5c4)c3)CC2)=C(c2ccc(Cl)cc2)C1 [Venetoclax] + CN(C)CCCOc1ccc(-c2ccc3ncc4c(c3c2)n(C2CCOCC2)c(=O)n4C)cn1 [AZD0156] (first compound max 1 µM, 7x7, partner max 1 µM)"
label_class = "1 (yes)"

[[record]]
molecule = "Cc1c2c(nn1C)CSCc1cc(n(C)n1)CSc1cc(c3ccccc3c1)OCCCc1c(C(=O)O)n(C)c3c-2c(Cl)ccc13 [AZD5991] + Nc1ccn([C@@H]2O[C@H](CO)[C@@H](O)C2(F)F)c(=O)n1 [Gemcitabine] (first compound max 1 µM, 7x7, partner max 0.3 µM)"
label_class = "1 (yes)"

[[record]]
molecule = "COc1cccc(OCCCN)c1-c1cc(Nc2cnc(C#N)cn2)n[nH]1 [Prexasertib] + Cc1cc2ncnn2cc1Nc1ncc2c(n1)n(C1CCOCC1)c(=O)n2C [AZD7648] (first compound max 1 µM, 7x7, partner max 10 µM)"
label_class = "1 (yes)"

[[record]]
molecule = "CN(CCO)CC[C@H](CSc1ccccc1)Nc1ccc(S(=O)(=O)NC(=O)c2ccc(N3CCC([C@@H](O)c4ccccc4-c4ccc(Cl)cc4)CC3)cc2)cc1S(=O)(=O)C(F)(F)F [AZD4320] + C[C@@H](Nc1cc(F)cc(F)c1)c1cc(C(=O)N(C)C)cc2c(=O)cc(N3CCOCC3)oc12 [AZD8186] (first compound max 1 µM, 7x7, partner max 3 µM)"
label_class = "0 (no)"

[[record]]
molecule = "NC1(C(=O)N[C@@H](CCO)c2ccc(Cl)cc2)CCN(c2ncnc3[nH]ccc23)CC1 [Capivasertib] + CC(C)n1c(=O)n(C)c2cnc3cc(F)c(-c4ccc(OCCCN5CCCCC5)nc4)cc3c21 [AZD1390] (first compound max 10 µM, 7x7, partner max 0.3 µM)"
label_class = "0 (no)"

[[record]]
molecule = "NC1(C(=O)N[C@@H](CCO)c2ccc(Cl)cc2)CCN(c2ncnc3[nH]ccc23)CC1 [Capivasertib] + C[C@@H]1COCCN1C2=NC(=NC(=C2)C3(CC3)[S@](=N)(=O)C)C4=C5C=CNC5=NC=C4 [AZD6738] (first compound max 10 µM, 7x7, partner max 10 µM)"
label_class = "0 (no)"


###

Test system: MIA-PaCa-2 (Pancreatic Carcinoma)
Assay Protocol: combination Emax (second highest fraction inhibited in the dose matrix, 72 h); higher = more inhibition; extreme values may be limits of the assay
Property Name: combination Emax

[[record]]
molecule = "CS(=O)(=O)CCNCc1ccc(-c2ccc3ncnc(Nc4ccc(OCc5cccc(F)c5)c(Cl)c4)c3c2)o1 [Lapatinib] + NC1(c2ccc(-c3nc4ccn5c(=O)[nH]nc5c4cc3-c3ccccc3)cc2)CCC1 [MK-2206] (first compound max 10 µM, 7x7, partner max 10 µM)"
study_system = "MIA-PaCa-2 (Pancreatic Carcinoma)"
number = 0.929

[[record]]
molecule = "CN(CCO)CC[C@H](CSc1ccccc1)Nc1ccc(S(=O)(=O)NC(=O)c2ccc(N3CCC([C@@H](O)c4ccccc4-c4ccc(Cl)cc4)CC3)cc2)cc1S(=O)(=O)C(F)(F)F [AZD4320] + Nc1ccn([C@@H]2O[C@H](CO)[C@@H](O)C2(F)F)c(=O)n1 [Gemcitabine] (first compound max 1 µM, 7x7, partner max 0.3 µM)"
study_system = "MIA-PaCa-2 (Pancreatic Carcinoma)"
number = 0.771

[[record]]
molecule = "O=C(c1cc(Cc2n[nH]c(=O)c3ccccc23)ccc1F)N1CCN(C(=O)C2CC2)CC1 [Olaparib] + Cc1c2c(nn1C)CSCc1cc(n(C)n1)CSc1cc(c3ccccc3c1)OCCCc1c(C(=O)O)n(C)c3c-2c(Cl)ccc13 [AZD5991] (first compound max 10 µM, 7x7, partner max 1 µM)"
study_system = "MIA-PaCa-2 (Pancreatic Carcinoma)"
number = 0.161

[[record]]
molecule = "CC(=O)Nc1cccc(-n2c(=O)n(C3CC3)c(=O)c3c(Nc4ccc(I)cc4F)n(C)c(=O)c(C)c32)c1 [Trametinib] + Cc1nc(-c2cn3c(n2)-c2ccc(-c4cnn(C(C)(C)C(N)=O)c4)cc2OCC3)n(C(C)C)n1 [Taselisib] (first compound max 1 µM, 7x7, partner max 10 µM)"
study_system = "MIA-PaCa-2 (Pancreatic Carcinoma)"
number = 0.887

[[record]]
molecule = "C[C@@H](c1ccc2nccn2c1)n1nnc2ncc(-c3cnn(C)c3)nc21 [Savolitinib] + CC1(C)CCC(CN2CCN(c3ccc(C(=O)NS(=O)(=O)c4ccc(NCC5CCOCC5)c([N+](=O)[O-])c4)c(Oc4cnc5[nH]ccc5c4)c3)CC2)=C(c2ccc(Cl)cc2)C1 [Venetoclax] (first compound max 1 µM, 7x7, partner max 1 µM)"
study_system = "MIA-PaCa-2 (Pancreatic Carcinoma)"
number = 0.164

[[record]]
molecule = "Cc1c2c(nn1C)CSCc1cc(n(C)n1)CSc1cc(c3ccccc3c1)OCCCc1c(C(=O)O)n(C)c3c-2c(Cl)ccc13 [AZD5991] + C[C@@H]1COCCN1C2=NC(=NC(=C2)C3(CC3)[S@](=N)(=O)C)C4=C5C=CNC5=NC=C4 [AZD6738] (first compound max 1 µM, 7x7, partner max 10 µM)"
study_system = "MIA-PaCa-2 (Pancreatic Carcinoma)"
number = 0.706

[[record]]
molecule = "CS(=O)(=O)CCNCc1ccc(-c2ccc3ncnc(Nc4ccc(OCc5cccc(F)c5)c(Cl)c4)c3c2)o1 [Lapatinib] + C[C@@H](Oc1cc(-c2cnn(C3CCNCC3)c2)cnc1N)c1c(Cl)ccc(F)c1Cl [Crizotinib] (first compound max 10 µM, 7x7, partner max 10 µM)"
study_system = "MIA-PaCa-2 (Pancreatic Carcinoma)"
number = 0.96


###

Tested on: PWR-1E (Non-Cancerous)
Assay Protocol: combination Emax (second highest fraction inhibited in the dose matrix, 72 h); higher = more inhibition; extreme values may be limits of the assay
Entries and their combination Emax
Property Name: combination Emax

[[record]]
compound = "CN(CCO)CC[C@H](CSc1ccccc1)Nc1ccc(S(=O)(=O)NC(=O)c2ccc(N3CCC([C@@H](O)c4ccccc4-c4ccc(Cl)cc4)CC3)cc2)cc1S(=O)(=O)C(F)(F)F [AZD4320] + CCN(CCO)CCCOc1ccc2c(Nc3cc(CC(=O)Nc4cccc(F)c4)[nH]n3)ncnc2c1 [AZD2811] (first compound max 1 µM, 7x7, partner max 1 µM)"
number = 0.843

[[record]]
compound = "COc1nnc2ccc(N3CCC(c4ccc(OCCN5CCN(C)C(=O)[C@H]5C)cc4)CC3)nn12 [AZD5153] + C[C@@H]1COCCN1C2=NC(=NC(=C2)C3(CC3)[S@](=N)(=O)C)C4=C5C=CNC5=NC=C4 [AZD6738] (first compound max 1 µM, 7x7, partner max 10 µM)"
number = 0.997

[[record]]
compound = "Cc1cc2ncnn2cc1Nc1ncc2c(n1)n(C1CCOCC1)c(=O)n2C [AZD7648] + C=CCn1c(=O)c2cnc(Nc3ccc(N4CCN(C)CC4)cc3)nc2n1-c1cccc(C(C)(C)O)n1 [AZD1775] (first compound max 10 µM, partner max 1 µM)"
number = 0.562

[[record]]
compound = "C[C@@H](c1ccc2nccn2c1)n1nnc2ncc(-c3cnn(C)c3)nc21 [Savolitinib] + CN(CC[C@H](CSC1=CC=CC=C1)NC2=C(C=C(C=C2)S(=O)(=O)NC(=O)C3=CC=C(C=C3)N4CCC(CC4)[C@H](C5=CC=CC=C5C6=CC=C(C=C6)Cl)O)S(=O)(=O)C(F)(F)F)CCO [AZD4320] (first compound max 1 µM, 7x7, partner max 1 µM)"
number = 0.211

[[record]]
compound = "C[C@@H]1COCCN1c1cc(C2([S@](C)(=N)=O)CC2)nc(-c2ccnc3[nH]ccc23)n1 [AZD6738] + O=C(c1cc(Cc2n[nH]c(=O)c3ccccc23)ccc1F)N1CCN(C(=O)C2CC2)CC1 [Olaparib] (first compound max 10 µM, 7x7, partner max 10 µM)"
number = 0.842

[[record]]
compound = "CC(=O)c1c(C)c2cnc(Nc3ccc(N4CCNCC4)cn3)nc2n(C2CCCC2)c1=O [Palbociclib] + CC1(C)CCC(CN2CCN(c3ccc(C(=O)NS(=O)(=O)c4ccc(NCC5CCOCC5)c([N+](=O)[O-])c4)c(Oc4cnc5[nH]ccc5c4)c3)CC2)=C(c2ccc(Cl)cc2)C1 [Venetoclax] (first compound max 10 µM, 7x7, partner max 1 µM)"
number = 0.149

[[record]]
compound = "CS(=O)(=O)CCNCc1ccc(-c2ccc3ncnc(Nc4ccc(OCc5cccc(F)c5)c(Cl)c4)c3c2)o1 [Lapatinib] + NC1(c2ccc(-c3nc4ccn5c(=O)[nH]nc5c4cc3-c3ccccc3)cc2)CCC1 [MK-2206] (first compound max 10 µM, 7x7, partner max 10 µM)"
number = 0.836

